Target: 6His-Tev-LRRK2 (1326-2527) (Homo sapiens, UniProt Q5S007)
Construct: A LRRK2 cDNA encoding residues 1326-2527 was received from Dundee University; made in house; host or cells: Spodoptera frugiperda (Sf9) insect cells, baculovirus (pFB-HTb)
Sequence (Q5S007 1326-2527): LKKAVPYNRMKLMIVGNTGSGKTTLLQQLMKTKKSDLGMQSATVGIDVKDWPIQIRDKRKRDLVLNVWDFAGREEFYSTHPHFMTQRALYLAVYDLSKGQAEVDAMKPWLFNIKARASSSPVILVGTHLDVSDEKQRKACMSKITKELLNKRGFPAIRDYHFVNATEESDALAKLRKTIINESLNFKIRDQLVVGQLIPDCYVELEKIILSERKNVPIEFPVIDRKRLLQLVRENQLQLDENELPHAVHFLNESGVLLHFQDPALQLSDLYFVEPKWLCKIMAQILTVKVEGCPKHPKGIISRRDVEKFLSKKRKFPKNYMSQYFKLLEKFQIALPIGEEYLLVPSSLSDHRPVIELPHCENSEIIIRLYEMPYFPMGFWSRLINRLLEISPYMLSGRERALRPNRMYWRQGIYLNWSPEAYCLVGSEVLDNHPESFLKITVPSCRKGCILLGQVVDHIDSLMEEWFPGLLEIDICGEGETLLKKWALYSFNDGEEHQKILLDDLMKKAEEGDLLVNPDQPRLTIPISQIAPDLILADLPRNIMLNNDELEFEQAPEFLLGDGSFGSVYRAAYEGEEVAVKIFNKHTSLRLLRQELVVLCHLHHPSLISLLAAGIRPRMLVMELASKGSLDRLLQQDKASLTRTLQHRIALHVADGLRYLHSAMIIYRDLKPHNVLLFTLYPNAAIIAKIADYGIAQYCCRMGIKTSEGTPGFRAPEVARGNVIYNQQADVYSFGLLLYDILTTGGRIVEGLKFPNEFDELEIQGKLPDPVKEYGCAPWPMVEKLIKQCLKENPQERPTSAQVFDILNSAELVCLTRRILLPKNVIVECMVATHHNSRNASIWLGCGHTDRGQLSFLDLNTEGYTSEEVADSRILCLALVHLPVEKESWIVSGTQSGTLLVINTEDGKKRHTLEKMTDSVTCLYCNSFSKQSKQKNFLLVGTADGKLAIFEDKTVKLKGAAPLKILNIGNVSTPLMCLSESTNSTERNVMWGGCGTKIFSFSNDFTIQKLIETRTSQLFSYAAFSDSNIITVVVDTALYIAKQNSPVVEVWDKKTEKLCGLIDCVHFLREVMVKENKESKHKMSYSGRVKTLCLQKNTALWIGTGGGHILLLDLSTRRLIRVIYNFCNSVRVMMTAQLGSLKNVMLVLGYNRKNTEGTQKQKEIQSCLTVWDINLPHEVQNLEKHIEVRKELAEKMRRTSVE
Assay: LRRK2 peptide substrate assay
Assay type: biochemical
Details: mean pIC50 of multiple test results; stated as threshold; read-out: pIC50 in the LRRK2 peptide substrate assay (bounds) (converted)
Assignment: determine reported IC50 for the given molecules.

O=C(Nc1ccnnc1)c1cc(Cl)c(C(=O)N2CCC(F)(F)C2)cc1OCc1ccccc1 : ≤ 100 nM
O=C(Nc1cccnc1)c1cc(C(F)(F)F)c(CN2CCCCC2)cc1OCc1ccccc1 : ≤ 1260 nM
O=C(Nc1cccc(Cl)c1)c1cc(Cl)c(C(=O)N2CCOCC2)cc1OCc1ccccc1 : ≤ 10 nM
Cn1cc(-c2cc(C(=O)Nc3cccnc3)c(OCc3ccc(F)cc3)cc2CN2CCOCC2)cn1 : ≤ 100 nM
Cn1cc(-c2cc(C(=O)Nc3cccnc3)c(OCc3ccccc3)cc2C(=O)N2CCOCC2)cn1 : ≤ 100 nM

Below are some molecules; for each one, tell me its IC50.
1. Cn1cc(-c2cc(OCc3ccc(F)cc3)c(C(=O)Nc3ccnnc3)cc2CN2CCOCC2)cn1
2. Cn1cc(-c2cc(C(=O)Nc3ccnnc3)c(OCc3ccccc3)cc2CN2CCOCC2)cn1
3. O=C(Nc1cccnc1)c1cc(C(F)(F)F)c(C(=O)N2CCCCC2)cc1OCc1ccccc1

A)
["≤ 1260 nM", "≤ 100 nM", "≤ 100 nM"]
